Values compiled from ChEMBL document CHEMBL4507311.

system.under.test: MAO-A (amine oxidase [flavin-containing] A) (Rattus norvegicus)
Sequence (P21396 whole entry): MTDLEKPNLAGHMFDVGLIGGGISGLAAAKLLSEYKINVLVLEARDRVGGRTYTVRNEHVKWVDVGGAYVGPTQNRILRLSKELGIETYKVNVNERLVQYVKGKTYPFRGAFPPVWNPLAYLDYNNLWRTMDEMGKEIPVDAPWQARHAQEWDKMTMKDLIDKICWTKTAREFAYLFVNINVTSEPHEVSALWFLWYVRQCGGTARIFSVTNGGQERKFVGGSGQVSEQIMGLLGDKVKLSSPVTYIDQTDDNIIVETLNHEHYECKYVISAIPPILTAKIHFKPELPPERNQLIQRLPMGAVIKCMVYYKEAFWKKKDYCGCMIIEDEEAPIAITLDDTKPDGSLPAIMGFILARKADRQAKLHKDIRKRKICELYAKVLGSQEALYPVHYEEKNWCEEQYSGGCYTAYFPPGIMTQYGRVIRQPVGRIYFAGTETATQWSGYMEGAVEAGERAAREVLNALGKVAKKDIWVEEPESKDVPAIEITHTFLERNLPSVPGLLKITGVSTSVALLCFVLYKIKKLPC
assay.overview: MAO-A Eurofins-Cerep binding assay
Design: incubation time 60 min, incubation temperature 37°C, ligand concentration 10 nM
condition.summary: rat cerebral cortex, probe [3H]Ro 41-1049 (10 nM), compound concentration 10 uM, read-out: % Inhibition of Control Specific Binding (Mean n=2)
reported.endpoint: inhibition at 60 min, 10 µM (%)
Report as a plain number; the unit % is understood.

| given.smiles | system.under.test | inhibition at 60 min, 10 µM (%) |
| --- | --- | --- |
| CN(C)CC#Cc1ccc(OCCCc2sc(N3CCc4cccc(C(=O)Nc5nc6ccccc6s5)c4C3)nc2C(=O)O)c(F)c1 | MAO-A (amine oxidase [flavin-containing] A) (Rattus norvegicus) | 74.5 |

Attention now shifts to the item below.
O=C(Nc1nc2ccccc2s1)c1cccc2c1CN(c1nc(C(=O)O)c(CCOc3ccc(-n4ncc5cncnc54)cc3)s1)CC2 yielded inhibition at 60 min, 10 µM of 11.1
